Source listed as patent US9433622B2.

# measuredOn: IKKε (Homo sapiens (Human), UniProt Q14164)
# Sequence (Q14164 whole entry): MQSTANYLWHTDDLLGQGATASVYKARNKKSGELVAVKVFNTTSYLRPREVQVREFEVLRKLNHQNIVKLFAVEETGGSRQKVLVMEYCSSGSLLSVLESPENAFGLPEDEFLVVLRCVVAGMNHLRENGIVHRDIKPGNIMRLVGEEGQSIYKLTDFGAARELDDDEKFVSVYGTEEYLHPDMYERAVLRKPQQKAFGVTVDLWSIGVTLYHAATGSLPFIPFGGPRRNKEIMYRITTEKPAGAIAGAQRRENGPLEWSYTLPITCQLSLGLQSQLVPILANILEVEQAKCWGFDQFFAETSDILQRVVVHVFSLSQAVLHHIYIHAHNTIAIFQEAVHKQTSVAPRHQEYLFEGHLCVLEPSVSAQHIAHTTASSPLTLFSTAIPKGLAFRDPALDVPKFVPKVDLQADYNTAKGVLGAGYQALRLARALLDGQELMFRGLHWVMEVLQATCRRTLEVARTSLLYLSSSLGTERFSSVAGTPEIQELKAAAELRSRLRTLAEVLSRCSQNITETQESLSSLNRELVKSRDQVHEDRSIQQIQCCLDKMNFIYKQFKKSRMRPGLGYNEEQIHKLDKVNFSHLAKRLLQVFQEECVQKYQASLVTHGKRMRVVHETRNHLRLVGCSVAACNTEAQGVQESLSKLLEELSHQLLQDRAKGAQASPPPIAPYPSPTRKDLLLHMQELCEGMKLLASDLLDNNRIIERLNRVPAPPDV
# procedureText: Lanthascreen TR-FRET kinase inhibition assay, IKKε
# Type: biochemical
# experimentalConditions: 20 μM ATP (apparent Km), 2 nM kinase, 1 h
# Experimental: Compounds of the invention (synthesised as described below) were tested for activity against the IKKε and TBK-1 enzyme as follows: Inhibitions studies were performed using a time-resolved fluorescence-based Lanthascreen™ assay. Phosphorylation of a fluorescein-labelled substrate peptide is measured using terbium-labeled phosphospecific antibodies. Kinase inhibition assays (10 μL) were performed at 20° C. in 384-well plate format. […]
testReadout: IC50

1. COCCNCc1cncc(Nc2nccc(-c3cnc(N4CC[C@H](F)C4)c(C#N)c3)n2)c1 [DMX-106] | < 0.1 µM
2. COCCN1Cc2ccc(Nc3nccc(-c4cnc(N5CC[C@H](F)C5)c(C#N)c4)n3)cc2C1 [DMX-127] | < 0.015 µM
3. N#Cc1cc(-c2ccnc(Nc3ccn[nH]3)n2)cnc1N1CC[C@H](F)C1 [DMX-64] | < 0.1 µM
4. N#Cc1nc(-c2ccnc(Nc3ccc(NC(=O)CN4CCOCC4)nc3)n2)ccc1N1CCCOCC1 [DMX-166] | < 0.1 µM
5. N#Cc1nc(-c2ccnc(Nc3ccc(NC(=O)CN4CC[C@H](F)C4)nc3)n2)ccc1N1CC[C@H](F)C1 [DMX-145] | < 0.03 µM
6. N#Cc1nc(-c2ccnc(Nc3ccc(NC(=O)CN4CC[C@H](F)C4)nc3)n2)ccc1N1CC[C@H](O)C1 [DMX-146] | < 0.1 µM
7. CNc1ncc(-c2ccnc(Nc3ccc(NC4CCN(C)CC4)nc3)n2)cc1C#N [DMX-119] | < 1 µM
8. N#Cc1cc(-c2ccnc(Nc3ccc(CN4CC[C@H](F)C4)nc3)n2)cnc1N1CC[C@H](F)C1 [DMX-80] | < 0.015 µM
9. N#Cc1nc(-c2ccnc(Nc3ccc(CN4CCNC(=O)C4)nc3)n2)ccc1N1CC[C@H](F)C1 [DMX-156] | < 0.015 µM
10. N#Cc1cc(-c2ccnc(Nc3ccc(NC(=O)CN4CCOCC4)nc3)n2)cnc1N1CCCOCC1 [DMX-85] | < 0.1 µM
11. N#Cc1cc(-c2ccnc(Nc3cnn(C[C@@H](O)CO)c3)n2)cnc1N1CCCC1 [DMX-39] | < 0.03 µM
12. N#Cc1cc(-c2ccnc(Nc3cncc(NC(=O)CN4CCOCC4)c3)n2)cnc1N1CC[C@H](F)C1 [DMX-108] | < 0.1 µM
13. N#Cc1nc(-c2nc(Nc3ccc(N4CCOCC4)cc3)ncc2F)ccc1N1CC[C@H](F)C1 [DMX-153] | < 0.015 µM
14. CN1CCC(Nc2ccc(Nc3nccc(-c4cnc(N5CCC(F)(F)C5)c(C#N)c4)n3)cn2)CC1 [DMX-15] | < 0.1 µM
15. N#Cc1nc(-c2ccnc(Nc3ccc(NC(=O)CN4CCOCC4)nc3)n2)ccc1N1CCC2(COC2)C1 [DMX-167] | < 0.03 µM
16. C[C@H]1COCCN1Cc1cc(Nc2nccc(-c3cnc(N4CC[C@H](F)C4)c(C#N)c3)n2)ccn1 [DMX-78] | < 0.03 µM
17. N#Cc1cc(-c2nc(Nc3ccnc(NC(=O)CN4CCOCC4)c3)ncc2F)cnc1N1CCCOCC1 [DMX-94] | < 1 µM
18. N#Cc1cc(-c2ccnc(Nc3ccc(NCCN4CCOCC4)nc3)n2)cnc1N1CC[C@H](F)C1 [DMX-67] | < 0.015 µM
19. CC(N)C(=O)Nc1ccc(Nc2nccc(-c3cnc(N4CC[C@H](F)C4)c(C#N)c3)n2)cn1 (stereo partly drawn) [DMX-56] | < 0.03 µM
20. CN1CCN(c2ccc(Nc3nccc(-c4cnc(N5CCCC5)c(C#N)c4)n3)cn2)CC1 [DMX-3] | < 0.015 µM
21. N#Cc1cc(-c2ccnc(Nc3ccc(NC(=O)CN4CCC(O)CC4)nc3)n2)cnc1N1CC[C@H](F)C1 [DMX-29] | < 0.03 µM

###

# reported IC50; entries follow
# measuredOn: TBK1 (Homo sapiens (Human), UniProt Q9UHD2)
# Sequence (Q9UHD2 whole entry): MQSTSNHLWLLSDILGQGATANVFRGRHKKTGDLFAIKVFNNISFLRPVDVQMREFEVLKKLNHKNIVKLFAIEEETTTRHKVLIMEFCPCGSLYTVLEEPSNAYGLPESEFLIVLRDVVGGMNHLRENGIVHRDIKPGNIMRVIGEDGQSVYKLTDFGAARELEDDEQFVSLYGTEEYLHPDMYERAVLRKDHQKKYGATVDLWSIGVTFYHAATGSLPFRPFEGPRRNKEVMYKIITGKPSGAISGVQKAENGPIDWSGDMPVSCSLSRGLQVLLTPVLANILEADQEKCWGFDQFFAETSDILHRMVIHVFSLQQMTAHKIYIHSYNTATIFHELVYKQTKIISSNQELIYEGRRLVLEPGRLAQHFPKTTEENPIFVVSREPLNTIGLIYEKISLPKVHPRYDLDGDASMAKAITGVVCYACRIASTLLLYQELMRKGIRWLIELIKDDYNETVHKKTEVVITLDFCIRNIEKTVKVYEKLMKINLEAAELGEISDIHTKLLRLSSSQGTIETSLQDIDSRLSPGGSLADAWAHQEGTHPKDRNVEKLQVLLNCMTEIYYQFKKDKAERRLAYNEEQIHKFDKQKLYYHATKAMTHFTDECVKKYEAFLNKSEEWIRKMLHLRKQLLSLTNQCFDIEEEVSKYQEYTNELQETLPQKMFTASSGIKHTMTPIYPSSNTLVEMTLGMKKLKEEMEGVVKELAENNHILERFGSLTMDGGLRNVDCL
# procedureText: Lanthascreen TR-FRET kinase inhibition assay, TBK1
# Assay type: biochemical
# experimentalConditions: 20 μM ATP (apparent Km), 8 nM kinase, 2.5 h
testReadout: IC50

1) COCCNCC(=O)Nc1ccc(Nc2nccc(-c3cnc(N4CC[C@H](F)C4)c(C#N)c3)n2)cn1 | < 100 nM
2) N#Cc1cc(-c2ccnc(Nc3cnn(CCCO)c3)n2)cnc1N1CC[C@H](F)C1 | < 30 nM
3) N#Cc1cc(-c2ccnc(Nc3ccc(NC(=O)[C@@H]4CCCN4)nc3)n2)cnc1N1CC[C@H](F)C1 | < 100 nM
4) COC1CN(Cc2ccc(Nc3nccc(-c4cnc(N5CC[C@H](F)C5)c(C#N)c4)n3)cn2)C1 | < 30 nM
5) CN1CCN(c2ccc(Nc3nccc(-c4cnc(N5CC[C@H](F)C5)c(C#N)c4)n3)cn2)CC1 | < 15 nM
6) N#Cc1cc(-c2ccnc(Nc3ccc(CN4CCOCC4)nc3)n2)cnc1N1CCCC1CC(N)=O (stereo not shown) | < 30 nM
7) COCCN1Cc2ccc(Nc3nccc(-c4cnc(N5CC[C@H](F)C5)c(C#N)c4)n3)cc2C1 | < 15 nM
8) N#Cc1nc(-c2ccnc(Nc3ccc(NC(=O)CN4CCOCC4)nc3)n2)ccc1N1CC[C@H](O)C1 | < 100 nM
9) N#Cc1cc(-c2ccnc(Nc3ccc(NCCN4CCOCC4)nc3)n2)cnc1N1CC[C@H](F)C1 | < 30 nM
10) CO[C@H]1CCN(Cc2ccc(Nc3nccc(-c4cnc(N5CC[C@H](F)C5)c(C#N)c4)n3)cn2)C1 | < 30 nM

###

# measuredOn: IKKε (Homo sapiens (Human), UniProt Q14164)
# procedureText: Lanthascreen TR-FRET kinase inhibition assay, IKKε
# Assay type: biochemical
# experimentalConditions: 20 μM ATP (apparent Km), 2 nM kinase, 1 h
testReadout: IC50

1) CC(C)N1CCN(CC(=O)Nc2ccc(Nc3nccc(-c4cnc(N5CC[C@H](F)C5)c(C#N)c4)n3)cn2)CC1 | < 30 nM
2) N#Cc1nc(-c2ccnc(Nc3ccc(NC(=O)CN4CCOCC4)nc3)n2)ccc1N1CC[C@H](O)C1 | < 100 nM
3) N#Cc1cc(-c2nc(Nc3ccc(NC(=O)CN4CCOCC4)nc3)ncc2F)cnc1N1CC[C@H](F)C1 | < 100 nM

###

# measuredOn: UniProt:Q9UHD2
# procedureText: Lanthascreen TR-FRET kinase inhibition assay, TBK1
# Format: biochemical
# experimentalConditions: 20 μM ATP (apparent Km), 8 nM kinase, 2.5 h
pIC50: −log10 of the molar value.
# reported pIC50; entries follow
testReadout: pIC50

1. N#Cc1cc(-c2ccnc(Nc3ccc(C(=O)NCCO)cc3)n2)cnc1N1CC[C@H](F)C1 [DMX-48] | > 7.82
2. COCCNc1ncc(-c2ccnc(Nc3ccc(NC4CCN(C)CC4)nc3)n2)cc1C#N [DMX-118] | > 6.00
3. Cc1nccn1Cc1ccc(Nc2nccc(-c3cnc(N4CC[C@H](F)C4)c(C#N)c3)n2)cn1 [DMX-81] | > 7.52
4. C[C@H]1COCCN1Cc1ccc(Nc2nccc(-c3cnc(N4CC[C@H](F)C4)c(C#N)c3)n2)cn1 [DMX-79] | > 7.52
5. N#Cc1cc(-c2ccnc(Nc3ccc(N4CCOCC4)nc3)n2)cnc1N1CC[C@H](O)C1 [DMX-50] | > 7.52
6. CC(C(=O)Nc1ccc(Nc2nccc(-c3cnc(N4CC[C@H](F)C4)c(C#N)c3)n2)cn1)N(C)C (stereo partly shown) [DMX-18] | > 7.00
7. CN(C(=O)CN1CCOCC1)c1ccc(Nc2nccc(-c3cnc(N4CC[C@H](F)C4)c(C#N)c3)n2)cn1 [DMX-74] | > 7.00
